- Test system: MoAb R-3-1
- test_details: Inhibition ELISA of MoAb R-3-1
- Type: binding, mouse
- condition_parameters: tissue culture supernatant
- Method: Inhibition ELISA Protocol 1. Use Falcon® Pro-bind™ inununoplates. 2. Dilute coating antigen to 1 μg/mL in carbonate-bicarbonate buffer. Add 100 μL per well and incubate overnight at 4° C. 3. On the same day prepare inhibiting antigen tubes. Aliquot antibodies into glass test tubes. Prepare appropriate antigen concentration in ethanol and add to aliquoted antibody at 10 μL ethanol solution/250 μL antibody. […] 11. […] Absorbance can be read at 405 nm at approximately 15-min intervals. […]
Measured Percent inhibition of MoAb R-3-1, listed per entry.
Please reply with the bare figure in % and do not write the unit itself.

// below: answered compounds
compound	result_value
CO[C@@H]1C[C@H](C[C@@H](C)[C@@H]2CC(=O)[C@H](C)/C=C(\C)[C@@H](O)[C@@H](OC)C(=O)[C@H](C)C[C@H](C)/C=C/C=C/C=C(\C)[C@@H](O)C[C@@H]3CC[C@@H](C)[C@@](O)(O3)C(=O)C(=O)N3CCCC[C@H]3C(=O)O2)CC[C@H]1O [M3, 7-O-Demethyl Rapamycin]	92
C=CCC1C=C(C)CC(C)CC(OC)C2OC(O)(C(=O)C(=O)N3CCCCC3C(=O)OC(C(C)=CC3CCC(O)C(O)C3)C(C)C(O)CC1=O)C(C)CC2OC (stereo not shown) [FK met 3, 31-O-Demethyl]	0
C=CCC1C=C(C)CC(C)CC(O)C2OC(O)(C(=O)C(=O)N3CCCCC3C(=O)OC(C(C)=CC3CCC(O)C(OC)C3)C(C)C(O)CC1=O)C(C)CC2OC (stereo not shown) [FK met 2, 15-O-Demethyl]	0

Query compound follows.
Query: Any idea what its Percent inhibition of MoAb R-3-1 is? The compound is C=CCC1C=C(C)CC(C)CC(OC)C2OC(O)(C(=O)C(=O)N3CCCCC3C(=O)OC(C(C)=CC3CCC(O)C(OC)C3)C(C)C(O)CC1=O)C(C)CC2O (stereo not shown) [FK met 1, 13-O-Demethyl]
Result: 0

Data provenance is patent US6709873B1.
